Assay Readout: pIC50
Reminder that pIC50 means the negative base-10 logarithm of the concentration expressed in mol/L.

Given the compound CNC(=O)c1ncc(C#Cc2cc(C(=O)Nc3ccc(CN4CCN(CCO)CC4)c(C(F)(F)F)c3)ccc2C)n1C and test system Fibroblast growth factor receptor 3 (Homo sapiens), the measured pIC50 is 7.98

====

Assay Notes: Half life in rat at 5 mg/kg, iv
Type: ADME, organism-based
Design: dose 5 mg/kg, route intravenous
Condition Summary: in vivo
Kindly state half-life for each of the entries shown.
# number only, unit h dropped from output

Form field half-life, entry Cc1ccc(C(=O)Nc2ccc(CN3CCN(CCO)CC3)c(C(F)(F)F)c2)cc1C#Cc1cnc(C(N)=O)n1C : 3.5

Form field half-life, entry CNC(=O)c1ncc(C#Cc2cc(C(=O)Nc3ccc(CN4CCN(CCO)CC4)c(C(F)(F)F)c3)ccc2C)n1C : 5.6

Form field half-life, entry Cc1ccc(C(=O)Nc2ccc(CN3CCN(C)CC3)c(C(F)(F)F)c2)cc1C#Cc1cnc(C(N)=O)n1C : 7

Form field half-life, entry Cc1ccc(C(=O)Nc2ccc(CN3CCN(C)CC3)c(C(F)(F)F)c2)cc1C#Cc1cncnc1 : 6.2

====

Kindly state Cmax for each of the entries shown.
Assay Notes: Cmax in rat at 15 mg/kg, po
Format: ADME, organism-based
Set-up: dose 15 mg/kg, route oral
Condition Summary: in vivo
# number only, unit µg/mL dropped from output

Form field Cmax, entry Cc1ccc(C(=O)Nc2ccc(CN3CCN(CCO)CC3)c(C(F)(F)F)c2)cc1C#Cc1cnc(C(N)=O)n1C : 0.0614

Form field Cmax, entry Cc1ccc(C(=O)Nc2ccc(CN3CCN(C)CC3)c(C(F)(F)F)c2)cc1C#Cc1cncnc1 : 0.9

Form field Cmax, entry Cc1ccc(C(=O)Nc2ccc(CN3CCN(C)CC3)c(C(F)(F)F)c2)cc1C#Cc1cnc(C(N)=O)n1C : 0.258

Form field Cmax, entry CNC(=O)c1ncc(C#Cc2cc(C(=O)Nc3ccc(CN4CCN(CCO)CC4)c(C(F)(F)F)c3)ccc2C)n1C : 0.344

====

Kindly state IC50 for each of the entries shown.

Given the molecule CCC(=O)Nc1ccc(C#Cc2cc(C(=O)Nc3ccc(CN4CCN(C)CC4)c(C(F)(F)F)c3)ccc2C)cn1 and test system Tyrosine-protein kinase ABL1 (Homo sapiens, UniProt P00519, T315I), the measured IC50 is 104 nM

Given the molecule Cc1ccc(C(=O)Nc2ccc(CN3CCN(C)CC3)c(C(F)(F)F)c2)cc1C#Cc1cncnc1 and test system Tyrosine-protein kinase ABL1 (Homo sapiens, UniProt P00519, T315I), the measured IC50 is 435 nM

Given the molecule CNC(=O)c1ncc(C#Cc2cc(C(=O)Nc3ccc(CN4CCN(C)CC4)c(C(F)(F)F)c3)ccc2C)n1C and test system Tyrosine-protein kinase ABL1 (Homo sapiens, UniProt P00519, T315I), the measured IC50 is 18 nM

Given the molecule Cc1ccc(C(=O)Nc2ccc(CN3CCN(C)CC3)c(C(F)(F)F)c2)cc1C#Cc1cnc(C(=O)NCCO)n1C and test system Tyrosine-protein kinase ABL1 (Homo sapiens, UniProt P00519, T315I), the measured IC50 is 301 nM

Given the molecule Cc1ccc(C(=O)Nc2ccc(CN3CCN(C)CC3)c(C(F)(F)F)c2)cc1C#Cc1cnc[nH]1 and test system Tyrosine-protein kinase ABL1 (Homo sapiens, UniProt P00519, T315I), the measured IC50 is 3720 nM

Given the molecule Cc1ccc(C(=O)Nc2ccc(CN3CCN(C)CC3)c(C(F)(F)F)c2)cc1C#Cc1cnc(C(N)=O)n1C and test system Tyrosine-protein kinase ABL1 (Homo sapiens, UniProt P00519, T315I), the measured IC50 is 25 nM

Given the molecule Cc1ccc(C(=O)Nc2ccc(CN3CCN(CCO)CC3)c(C(F)(F)F)c2)cc1C#Cc1cnc(C(N)=O)n1C and test system Tyrosine-protein kinase ABL1 (Homo sapiens, UniProt P00519, T315I), the measured IC50 is 36 nM

Given the molecule CC(=O)Nc1ncc(C#Cc2cc(C(=O)Nc3ccc(CN4CCN(C)CC4)c(C(F)(F)F)c3)ccc2C)s1 and test system Tyrosine-protein kinase ABL1 (Homo sapiens, UniProt P00519, T315I), the measured IC50 is 27 nM

Given the molecule Cc1ccc(C(=O)Nc2ccc(CN3CCN(C)CC3)c(C(F)(F)F)c2)cc1C#Cc1cnc(NC2CC2)nc1 and test system Tyrosine-protein kinase ABL1 (Homo sapiens, UniProt P00519, T315I), the measured IC50 is 457 nM

====

Assay Notes: Oral bioavailability in rat at 15 mg/kg
Format: ADME, organism-based
Condition Summary: in vivo
Kindly state bioavailability for each of the entries shown.
Please make sure the unit comes right after the number.

Form field bioavailability, entry Cc1ccc(C(=O)Nc2ccc(CN3CCN(CCO)CC3)c(C(F)(F)F)c2)cc1C#Cc1cnc(C(N)=O)n1C : 14%

Form field bioavailability, entry Cc1ccc(C(=O)Nc2ccc(CN3CCN(C)CC3)c(C(F)(F)F)c2)cc1C#Cc1cncnc1 : 85%

Form field bioavailability, entry Cc1ccc(C(=O)Nc2ccc(CN3CCN(C)CC3)c(C(F)(F)F)c2)cc1C#Cc1cnc(C(N)=O)n1C : 25.3%

Form field bioavailability, entry CNC(=O)c1ncc(C#Cc2cc(C(=O)Nc3ccc(CN4CCN(CCO)CC4)c(C(F)(F)F)c3)ccc2C)n1C : 45%

====

Observed pIC50 for UniProtKB P00519, reported per entry below.
Reminder that pIC50 means the negative base-10 logarithm of the concentration expressed in mol/L.

Given the compound Cc1ccc(C(=O)Nc2ccc(CN3CCN(CC(=O)O)CC3)c(C(F)(F)F)c2)cc1C#Cc1cnc(C(N)=O)n1C and test system UniProtKB P00519, the measured pIC50 is 8.37

Given the compound Cc1ccc(C(=O)Nc2ccc(CN3CCN(C)CC3)c(C(F)(F)F)c2)cc1C#Cc1ccc(C(N)=O)nc1 and test system UniProtKB P00519, the measured pIC50 is 7.31

Given the compound Cc1ccc(C(=O)Nc2ccc(CN3CCN(C)CC3)c(C(F)(F)F)c2)cc1C#Cc1cnc[nH]1 and test system UniProtKB P00519, the measured pIC50 is 6.00

Given the compound Cc1ccc(C(=O)Nc2ccc(CN3CCN(C)CC3)c(C(F)(F)F)c2)cc1C#Cc1cncn1C and test system UniProtKB P00519, the measured pIC50 is 6.89

Given the compound Cc1ccc(C(=O)Nc2ccc(CN3CCN(C)CC3)c(C(F)(F)F)c2)cc1C#Cc1cnc(C)n1C and test system UniProtKB P00519, the measured pIC50 is 7.14

Given the compound CNC(=O)c1ncc(C#Cc2cc(C(=O)Nc3ccc(CN4CCN(C)CC4)c(C(F)(F)F)c3)ccc2C)n1C and test system UniProtKB P00519, the measured pIC50 is 7.76

Given the compound COCCN1CCN(Cc2ccc(NC(=O)c3ccc(C)c(C#Cc4cnc(C(N)=O)n4C)c3)cc2C(F)(F)F)CC1 and test system UniProtKB P00519, the measured pIC50 is 8.32

Given the compound CCC(=O)Nc1ccc(C#Cc2cc(C(=O)Nc3ccc(CN4CCN(C)CC4)c(C(F)(F)F)c3)ccc2C)cn1 and test system UniProtKB P00519, the measured pIC50 is 7.54

Given the compound CC(=O)Nc1ccc(C#Cc2cc(C(=O)Nc3ccc(CN4CCN(C)CC4)c(C(F)(F)F)c3)ccc2C)cn1 and test system UniProtKB P00519, the measured pIC50 is 7.74

====

Assay Notes: Volume of distribution in rat at 5 mg/kg, iv
Format: ADME, organism-based
Set-up: dose 5 mg/kg, route intravenous
Condition Summary: in vivo
Assay Readout: Vd (L/kg)
# number only, unit L/kg dropped from output

Form field Vd, entry Cc1ccc(C(=O)Nc2ccc(CN3CCN(C)CC3)c(C(F)(F)F)c2)cc1C#Cc1cncnc1 : 8.5

Form field Vd, entry Cc1ccc(C(=O)Nc2ccc(CN3CCN(CCO)CC3)c(C(F)(F)F)c2)cc1C#Cc1cnc(C(N)=O)n1C : 11

Form field Vd, entry CNC(=O)c1ncc(C#Cc2cc(C(=O)Nc3ccc(CN4CCN(CCO)CC4)c(C(F)(F)F)c3)ccc2C)n1C : 8.2

Form field Vd, entry Cc1ccc(C(=O)Nc2ccc(CN3CCN(C)CC3)c(C(F)(F)F)c2)cc1C#Cc1cnc(C(N)=O)n1C : 9.3

====

pIC50: −log10 of the molar value.
Assay Readout: pIC50

Given the compound CNC(=O)c1ncc(C#Cc2cc(C(=O)Nc3ccc(CN4CCN(CCO)CC4)c(C(F)(F)F)c3)ccc2C)n1C and test system Tyrosine-protein kinase Lyn (Homo sapiens, UniProt P07948), the measured pIC50 is > 9.82

====

Kindly state IC50 for each of the entries shown.
Assay Notes: cells
Condition Summary: Mus musculus, BaF3
# number only, unit nM dropped from output

Form field IC50, entry Cc1ccc(C(=O)Nc2ccc(CN3CCN(C)CC3)c(C(F)(F)F)c2)cc1C#Cc1cnc[nH]1 : 5740

Form field IC50, entry Cc1ccc(C(=O)Nc2ccc(CN3CCN(C)CC3)c(C(F)(F)F)c2)cc1C#Cc1cnc(N)s1 : 17.5

Form field IC50, entry CC(=O)Nc1ccc(C#Cc2cc(C(=O)Nc3ccc(CN4CCN(C)CC4)c(C(F)(F)F)c3)ccc2C)cn1 : 9.6

Form field IC50, entry CC(=O)Nc1ncc(C#Cc2cc(C(=O)Nc3ccc(CN4CCN(C)CC4)c(C(F)(F)F)c3)ccc2C)s1 : 5.5

Form field IC50, entry Cc1ccc(C(=O)Nc2ccc(CN3CCN(C)CC3)c(C(F)(F)F)c2)cc1C#Cc1cncnc1 : 65

Form field IC50, entry Cc1ccc(C(=O)Nc2ccc(CN3CCN(C)CC3)c(C(F)(F)F)c2)cc1C#Cc1ccc(C(N)=O)nc1 : 18

Form field IC50, entry CCC(=O)Nc1ccc(C#Cc2cc(C(=O)Nc3ccc(CN4CCN(C)CC4)c(C(F)(F)F)c3)ccc2C)cn1 : 13.4

Form field IC50, entry CNC(=O)c1ncc(C#Cc2cc(C(=O)Nc3ccc(CN4CCN(CCO)CC4)c(C(F)(F)F)c3)ccc2C)n1C : 8.4

Form field IC50, entry COCCN1CCN(Cc2ccc(NC(=O)c3ccc(C)c(C#Cc4cnc(C(N)=O)n4C)c3)cc2C(F)(F)F)CC1 : 10.8

Form field IC50, entry Cc1ccc(C(=O)Nc2ccc(CN3CCN(C)CC3)c(C(F)(F)F)c2)cc1C#Cc1cnc(C)n1C : 69
